For each of the binders below, state its Internalization rate (flow cytometry, MDA-MB-468 cells).
# experimental-system: T1, human Trop-2 on Trop-2 positive cancer cells (human, UniProt P09758 27-323)
# T1 sequence (looked up): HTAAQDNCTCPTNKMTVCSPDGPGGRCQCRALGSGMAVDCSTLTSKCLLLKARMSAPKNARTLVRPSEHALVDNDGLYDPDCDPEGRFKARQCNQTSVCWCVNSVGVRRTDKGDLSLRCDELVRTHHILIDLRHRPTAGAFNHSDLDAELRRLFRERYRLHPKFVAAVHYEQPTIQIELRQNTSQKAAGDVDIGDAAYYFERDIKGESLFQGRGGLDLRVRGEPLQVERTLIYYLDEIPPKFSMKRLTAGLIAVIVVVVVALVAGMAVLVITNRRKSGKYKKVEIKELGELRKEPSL
# run-description: cell-based or functional assay
Report the figure in % without appending any unit label.

Would you kindly share the measured Internalization rate (flow cytometry, MDA-MB-468 cells) for humanized IgG #118-2-5 HuC/LuX (antibody, V domains shown, Full-length IgG expressed in HEK293-6E cells; also called 3 (HuC/LuX)) VH: QVQLQESGPGLVKPSETLSLTCTVSGFSLTSYGVNWIRQPPGKGLEWIGVMWAGGSTNYNSALMSRLSISKDNSKSQVFLKMNSLQTDDTGMYYCARDENWDGAWFAYWGQGTLVTVSS VL: DIVMTQSPDSLAVSLGERATINCKSSQSLLNSGTRKNYLAWYQQKPGQPPKLLIYWASSRESGVPDRFSGSGSGTDFTLTISSLQAEDVAVYYCKQSYNLFTFGGGTKVEIK ? 0.9

Item under review: humanized IgG #118-2-5 HuB/LuX (antibody, V domains shown, Full-length IgG expressed in HEK293-6E cells; also called 2 (HuB/LuX)) VH: QVQLKQSGPGLVAPSQSLSITCTVSGFSLTSYGVNWIRQPPGKGLEWIGVMWAGGSTNYNSALMSRVTISVDTSKNQFSLKLSSVTAADTAVYYCARDENWDGAWFAYWGQGTLVTVSS VL: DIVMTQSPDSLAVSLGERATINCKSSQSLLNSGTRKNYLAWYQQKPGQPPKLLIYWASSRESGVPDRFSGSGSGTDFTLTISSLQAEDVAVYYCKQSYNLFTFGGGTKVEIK . Reported Internalization rate (flow cytometry, MDA-MB-468 cells)? 75

// query Internalization rate (flow cytometry, MDA-MB-468 cells) value for entry humanized IgG #118-2-5 HuA/LuY (antibody, V domains shown, Full-length IgG expressed in HEK293-6E cells) VH: QVQLQESGPGLVKPSETLSLTCTVSGFSLTSYGVNWIRQPPGKGLEWIGVMWAGGSTNYNSALMSRVTISVDTSKNQFSLKLSSVTAADTAVYYCARDENWDGAWFAYWGQGTLVTVSS VL: DIVMTQSPSSLAVSLGERATMSCKSSQSLLNSGTRKNYLAWYQQKPGQPPKLLISWASSRESGVPDRFSGSGSGTDFTLTISSVQAEDLAVYYCKQSYNLFTFGGGTKVEIK -14.7

What value of Internalization rate (flow cytometry, MDA-MB-468 cells) has been reported for the following binder? humanized IgG #118-2-5 HuB/LuY (antibody, V domains shown, Full-length IgG expressed in HEK293-6E cells; also called 6 (HuB/LuY)) VH: QVQLKQSGPGLVAPSQSLSITCTVSGFSLTSYGVNWIRQPPGKGLEWIGVMWAGGSTNYNSALMSRVTISVDTSKNQFSLKLSSVTAADTAVYYCARDENWDGAWFAYWGQGTLVTVSS VL: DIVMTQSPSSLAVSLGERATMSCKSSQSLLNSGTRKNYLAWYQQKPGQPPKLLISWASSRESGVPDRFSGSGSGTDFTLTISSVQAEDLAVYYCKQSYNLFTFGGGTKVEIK -8.5
